# Read-out: 3-Hydroxy-3-Methylglutaryl-CoA Synthase 2 (HMGCS2), HMGCS2 (gene 3158)
# assay_method_text: LTEA_HepaRG_HMGCS2: Life Technologies and Expression Analysis (LTEA) Assay for 3-Hydroxy-3-Methylglutaryl-CoA Synthase 2 (HMGCS2) using HepaRG (AID 2283504)
# applied_conditions: mRNA level, 48 h; actives raise or lower the signal
# Procedure: LTEA_HepaRG is a cell based, multiplexed-readout assay that uses HepaRG, a human liver cell line, with measurements taken at 48 hours after chemical dosing on a 96-well plate.LTEA_HepaRG_HMGCS2 is one of 102 assay component(s) measured in the LTEA HepaRG cell culture assay. It is a marker of Steatosis.Data from the assay component LTEA_HepaRG_HMGCS2 was analyzed into 1 endpoint. […]
Calls of active or inactive are those of the source. The calls were made as follows: active = hit-call score of the fitted dose curve at least 0.9, where 1 is the maximum; inactive = score below 0.9.
Answer with one of the outcomes given here: y (active), n (inactive)

Outcome? "CCCN(CCC)c1c([N+](=O)[O-])cc(C(F)(F)F)cc1[N+](=O)[O-]" n

Do the same for CC[C@H](C)[C@H]1O[C@]2(C=C[C@@H]1C)C[C@@H]1C[C@@H](C/C=C(\C)[C@@H](O[C@H]3C[C@H](OC)[C@@H](O[C@H]4C[C@H](OC)[C@@H](O)[C@H](C)O4)[C@H](C)O3)[C@@H](C)/C=C/C=C3\CO[C@@H]4[C@H](O)C(C)=C[C@@H](C(=O)O1)[C@]34O)O2 (tested in a mixture with another compound) please y

Next molecule up: "O=C(O)CCCOc1ccc(Cl)cc1Cl" n

One more molecule: CCC(C)Nc1c([N+](=O)[O-])cc(C(C)(C)C)cc1[N+](=O)[O-] (stereo not given) y

Another molecule to look at: "O=[N+]([O-])/N=C1\NCCN1Cc1ccc(Cl)nc1" y

# repeat for "COP(=O)(OC)OC=C(Cl)Cl" n

One more molecule: CC1(C)C(C=C(Cl)Cl)C1C(=O)OC(C#N)c1ccc(F)c(Oc2ccccc2)c1 (stereo not given) n

Queued: CC(C)(C)C(O)/C(=C\c1ccc(Cl)cc1Cl)n1cncn1 (stereo not given) y

Now consider "C[C@H]1[C@H](c2ccc(Cl)cc2)SC(=O)N1C(=O)NC1CCCCC1" and answer again. y

Check "CNC(=O)Oc1cccc(N=CN(C)C)c1" too. n

Okay, and "O=C(Nc1ccccc1)Nc1cnns1" ? y

Also need "CCc1ccc(C(=O)NN(C(=O)c2cc(C)cc(C)c2)C(C)(C)C)cc1" , thanks. y

What do we get for "CNC(=O)CSP(=S)(OC)OC" ? n

Next molecule: "COP(=S)(OC)Oc1ccc([N+](=O)[O-])cc1" n

Same for "COP(=S)(OC)Oc1ccc(SC)c(C)c1" n

---

# assay_method_text: ATG_NRF2_ARE_CIS: Attagene CIS-FACTORIAL HepG2 Assay for human Nuclear Factor Erythroid 2 Related Factor 2 (NFR2) response to Antioxidant Response Elements (ARE) (AID 2282992)
# applied_conditions: HepG2 Attagene ARE/NRF2 reporter, transcription factor activity; actives raise or lower the signal
Active and inactive are the calls of the source. The calls were made as follows: active = hit-call score of the fitted dose curve at least 0.9, where 1 is the maximum; inactive = score below 0.9.
Bench note: report the call from Yes (active), No (inactive)

What outcome does the record of this test show for O=S1OCC2C(CO1)C1(Cl)C(Cl)=C(Cl)C2(Cl)C1(Cl)Cl (configuration not stated) ? No

Ok, now CCC(C)Nc1c([N+](=O)[O-])cc(C(C)(C)C)cc1[N+](=O)[O-] (configuration not stated) Yes

Check "CCOc1nc(NC)nc(NC(=O)NS(=O)(=O)c2ccccc2C(=O)OC)n1" too. No

Another molecule to check: CCOC1Oc2ccc(OS(C)(=O)=O)cc2C1(C)C (configuration not stated) Yes

Similarly, "[2H]C1([2H])[n+]2ccccc2-c2cccc[n+]2C1([2H])[2H]" ? Yes

Field entry: "C#CCN1C(=O)COc2cc(F)c(N3C(=O)C4=C(CCCC4)C3=O)cc21" Yes

And then CCC(C)(NC(=O)c1cc(Cl)c(C)c(Cl)c1)C(=O)CCl (configuration not stated) , what is it? Yes

Further, for "N#Cc1c(Cl)c(Cl)c(Cl)c(C#N)c1Cl" ? Yes

Cool, now "COP(=S)(OC)Oc1ccc([N+](=O)[O-])cc1" No

Now consider O=C(NC(=O)c1c(F)cccc1F)Nc1ccc(OC(F)(F)C(F)OC(F)(F)F)c(Cl)c1 (configuration not stated) and answer again. Yes

Now consider "CCc1ccc(C(=O)NN(C(=O)c2cc(C)cc(C)c2)C(C)(C)C)cc1" and answer again. Yes

Subsequent entry: "CNC(=O)CSP(=S)(OC)OC" No

---

# assay_method_text: ATG_NFI_CIS: Attagene CIS-FACTORIAL HepG2 Assay for human Nuclear Factor I (NFI) (AID 2282989)
# applied_conditions: HepG2 cis-regulatory reporter, NFI response element transcription; actives raise or lower the signal
Calls of active or inactive are those of the source. The calls were made as follows: active = hit-call score of the fitted dose curve at least 0.9, where 1 is the maximum; inactive = score below 0.9.
Write down one outcome, taken from active, inactive

Returns: the outcome recorded for "COC(=O)c1ccccc1S(=O)(=O)NC(=O)Nc1nc(C)nc(OC)n1" in this assay. inactive

Try this molecule too: "CCCN(CCOc1c(Cl)cc(Cl)cc1Cl)C(=O)n1ccnc1" inactive

What do you get for "COc1cc(OC)nc(NC(=O)NS(=O)(=O)c2cc(NC=O)ccc2C(=O)N(C)C)n1" ? inactive

Same lookup for "CC(C)N(C(=O)COc1nnc(C(F)(F)F)s1)c1ccc(F)cc1" , please. inactive

One more molecule: "N#CN" inactive

// repeat for "Cc1cc(C)nc(NC(=O)NS(=O)(=O)c2ccccc2C(=O)OC2COC2)n1" and report inactive

Repeat for the following molecule: "[2H]C1([2H])[n+]2ccccc2-c2cccc[n+]2C1([2H])[2H]" active

Request: "N#Cc1c(Cl)c(Cl)c(Cl)c(C#N)c1Cl" inactive

Continue with "CCS(=O)(=O)c1cccnc1S(=O)(=O)NC(=O)Nc1nc(OC)cc(OC)n1" inactive

What do you get for "Clc1ccccc1-c1nnc(-c2ccccc2Cl)nn1" ? inactive

---

# assay_method_text: CEETOX_H295R_DOC: CeeTox H295R High-throughput Steroidogenesis Assay for DOC (AID 2283439)
# applied_conditions: actives raise or lower the signal
Activity calls are given as the source filed them. Rule for the calls: active = hit-call score of the fitted dose curve at least 0.9, where 1 is the maximum; inactive = score below 0.9.
Output constraint: value belongs to t for active, f for inactive

Please state the recorded outcome for this compound: CCC(C)Nc1c([N+](=O)[O-])cc(C(C)(C)C)cc1[N+](=O)[O-] (configuration not stated) t

Quick one: "COc1nn(CSP(=S)(OC)OC)c(=O)s1" t

Also, "CCc1ccc(C(=O)NN(C(=O)c2cc(C)cc(C)c2)C(C)(C)C)cc1" please. f

Check "O=[N+]([O-])/N=C1\NCCN1Cc1ccc(Cl)nc1" too. f

Repeat for the following compound: "N#Cc1c(Cl)c(Cl)c(Cl)c(C#N)c1Cl" f

// query: "O=[N+]([O-])c1c(Cl)c(Cl)c(Cl)c(Cl)c1Cl" f

Can you handle "CNC(=O)Oc1ccccc1OC(C)C" next? f

---

# Read-out: Interleukin-1 alpha (IL1a), IL1A (gene 3552)
# assay_method_text: BSK_BE3C_IL1a: BioMAP Diversity Plus: BE3C Assay for Interleukin-1 alpha (IL1a) Biomarker Activity (AID 2283016)
# applied_conditions: primary human bronchial epithelial cells; actives raise or lower the signal
Activity calls are given as the source filed them. How the source made its calls: active means hit-call score of the fitted dose curve at least 0.9, where 1 is the maximum; inactive means score below 0.9.
Answer with one of the outcomes active, inactive

Recorded test outcome, item CCC(C)(NC(=O)c1cc(Cl)c(C)c(Cl)c1)C(=O)CCl (centres undefined) active

Subsequent entry: "CCOCN(C(=O)CCl)c1c(C)cccc1CC" inactive

What do we get for "CCOc1nc(NC)nc(NC(=O)NS(=O)(=O)c2ccccc2C(=O)OC)n1" ? inactive

Another: "N#Cc1c(Cl)c(Cl)c(Cl)c(C#N)c1Cl" active

Okay, and "OCCOc1ccccc1" ? inactive

How about "CNC(=O)/C=C(\C)OP(=O)(OC)OC" ? inactive

# iterate: "[2H]C1([2H])[n+]2ccccc2-c2cccc[n+]2C1([2H])[2H]" inactive

Same question for "CCS(=O)(=O)c1cccnc1S(=O)(=O)NC(=O)Nc1nc(OC)cc(OC)n1" please. inactive

Here is the next compound: "COC(=O)c1ccccc1CS(=O)(=O)NC(=O)Nc1nc(OC)cc(OC)n1" inactive

Same question, "CCCN(CCC)c1c([N+](=O)[O-])cc(C(F)(F)F)cc1[N+](=O)[O-]" this time inactive

Lookup "O=[N+]([O-])/N=C1\NCCN1Cc1ccc(Cl)nc1" inactive

Also CC1(C)C(C=C(Cl)Cl)C1C(=O)OC(C#N)c1ccc(F)c(Oc2ccccc2)c1 (centres undefined) ? inactive

Here is the next compound: "CCCN(CCOc1c(Cl)cc(Cl)cc1Cl)C(=O)n1ccnc1" active

What do you get for "O=C(O)COc1ccc(Cl)cc1Cl" ? inactive

Also "COc1nn(CSP(=S)(OC)OC)c(=O)s1" ? inactive

Another: "Oc1ccc(Cl)cc1Cc1ccccc1" active

How about ClC1C(Cl)C(Cl)C(Cl)C(Cl)C1Cl (centres undefined) ? inactive

What do you get for "CCN(CC)C(=O)SCc1ccc(Cl)cc1" ? inactive

Now try O=C(NC(=O)c1c(F)cccc1F)Nc1ccc(OC(F)(F)C(F)OC(F)(F)F)c(Cl)c1 (centres undefined) . inactive

Input "Cc1[nH]c(=O)n(C(C)(C)C)c(=O)c1Cl" inactive

Field entry: "COC(=O)c1ccccc1S(=O)(=O)NC(=O)N(C)c1nc(C)nc(OC)n1" inactive

Repeat with CC1(c2ccc(Oc3ccccc3)cc2)OC(=O)N(Nc2ccccc2)C1=O (centres undefined) inactive

Same question for "COc1cc(OC)nc(NC(=O)NS(=O)(=O)c2cc(NC=O)ccc2C(=O)N(C)C)n1" please. inactive

Also "Cc1cc(C)nc(NC(=O)NS(=O)(=O)c2ccccc2C(=O)OC2COC2)n1" , if possible. inactive
